# Test system: ATP;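 also: ATP exposure 15 min at 22 °C before imaging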
# test details: switch fluorescence ratio, 500 uM ATP over buffer (Cy3 cluster intensity, sum of 5 cycles each) (fold (ratio)); higher = stronger signal-on switching upon ATP binding; sequences stand for … in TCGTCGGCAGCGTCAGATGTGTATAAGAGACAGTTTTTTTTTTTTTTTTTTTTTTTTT…TC
# test parameters: aptamer strand: ATP DNA aptamer (quencher-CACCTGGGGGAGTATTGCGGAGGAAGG + anchor), 100 nM annealed; ATP concentration: 500 uM
Assignment: determine reported switch fluorescence ratio for the given sequences.
Write no unit; give the number alone.

Give the measured switch fluorescence ratio of "GGGGGGCGGT" .
0.989

switch fluorescence ratio lookup needed for "AATGAAAAAC" , thanks.
1.01

So what does the record say about switch fluorescence ratio for "TTTTTTCTGT" ?
1.01

Which switch fluorescence ratio value is on record for "GGGAATAATG" ?
1.01

Could you share which switch fluorescence ratio value was measured for "GATGTCGCGC" ?
1.01

For the sequence shown here, "CCATGGGTTC" , give the reported switch fluorescence ratio.
1

Item "GGGAAAGGCA" has what recorded switch fluorescence ratio?
1.02

// returns reported switch fluorescence ratio for input "GCTGACATTC"
0.992

Can you look up the measured switch fluorescence ratio of "GGGTTTTGG" for me?
0.998

Data request, read-out switch fluorescence ratio, for "TTGTTGTTAC"
1

Look at this sequence and give its reported switch fluorescence ratio. "TGATGGGCAT"
1.01
